Measured values drawn from ChEMBL document CHEMBL4422662 for this set.

target: Mitogen-activated protein kinase 1 (Homo sapiens, UniProt P28482); experiment: Inhibition of N-terminal GST-tagged recombinant full-length human MAPK1 expressed in Escherichia coli using MBP1 as substrate after 3 hrs by kinase-glo luminescent assay relative to control
Sequence (P28482 whole entry): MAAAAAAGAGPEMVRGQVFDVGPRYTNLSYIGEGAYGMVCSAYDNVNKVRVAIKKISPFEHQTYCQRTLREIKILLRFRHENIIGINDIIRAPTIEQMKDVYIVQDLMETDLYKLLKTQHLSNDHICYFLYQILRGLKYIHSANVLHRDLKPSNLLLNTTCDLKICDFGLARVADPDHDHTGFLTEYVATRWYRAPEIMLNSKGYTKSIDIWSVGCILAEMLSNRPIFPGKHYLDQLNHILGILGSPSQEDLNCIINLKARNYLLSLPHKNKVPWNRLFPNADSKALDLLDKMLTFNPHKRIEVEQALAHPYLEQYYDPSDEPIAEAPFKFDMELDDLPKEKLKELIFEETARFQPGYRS
Measured property: IC50
Please answer using the number first and the unit second.

Query: Given the entry CC(C1CC1)n1cnc2c(NCc3cccc(C(F)(F)F)c3)nc(NCCN(C)C)nc21 (configuration not stated) , report its measured IC50.
Reply: 850 µM

Query: Given the entry CC(C)n1cnc2c(NCc3cccc(C(F)(F)F)c3)ncnc21 , report its measured IC50.
Reply: 59 µM

###

molecular target: Cyclin-dependent kinase 2 (Homo sapiens); assay: Inhibition of CDK2 (unknown origin) after 3 hrs by kinase-glo luminescent assay relative to control
Task for the reader: assign each of the following compounds its reported pIC50.
Value format note: pIC50 is -log10 of concentration (mol/L); just state the number.

Query: Lab note: need pIC50 with Cyclin-dependent kinase 2 (Homo sapiens) for entry CC(C1CC1)n1cnc2c(NCc3cccc(C(F)(F)F)c3)nc(NCCN(C)C)nc21 (configuration not stated) , please look it up.
Reply: 4.43

Query: Lab note: need pIC50 with Cyclin-dependent kinase 2 (Homo sapiens) for entry CC(C)n1cnc2c(NCc3cccc(C(F)(F)F)c3)ncnc21 , please look it up.
Reply: 4.89

###

molecular target: Casein kinase I isoform alpha/delta (Homo sapiens) (UniProt P48730+P48729); assay: Inhibition of CK1alpha/CK1delta in human U2OS cells co-expressing Bmal1-dLuc assessed as modulation circadian clock by measuring drug level causing 1 hr circadian period lengthening measured every 100 mins by luminescence assay; format: cell-based
Sequence (P48729 whole entry, looked up, canonical isoform): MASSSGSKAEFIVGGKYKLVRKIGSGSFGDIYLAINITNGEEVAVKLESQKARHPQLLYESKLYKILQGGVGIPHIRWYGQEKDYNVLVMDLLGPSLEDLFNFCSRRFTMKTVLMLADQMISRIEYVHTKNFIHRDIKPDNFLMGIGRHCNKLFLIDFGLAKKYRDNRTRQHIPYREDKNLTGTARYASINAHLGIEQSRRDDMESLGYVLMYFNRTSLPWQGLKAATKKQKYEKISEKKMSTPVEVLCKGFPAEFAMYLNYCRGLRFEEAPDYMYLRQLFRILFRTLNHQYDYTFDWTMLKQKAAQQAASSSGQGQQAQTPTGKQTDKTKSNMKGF
Sequence (P48730 whole entry, looked up, canonical isoform): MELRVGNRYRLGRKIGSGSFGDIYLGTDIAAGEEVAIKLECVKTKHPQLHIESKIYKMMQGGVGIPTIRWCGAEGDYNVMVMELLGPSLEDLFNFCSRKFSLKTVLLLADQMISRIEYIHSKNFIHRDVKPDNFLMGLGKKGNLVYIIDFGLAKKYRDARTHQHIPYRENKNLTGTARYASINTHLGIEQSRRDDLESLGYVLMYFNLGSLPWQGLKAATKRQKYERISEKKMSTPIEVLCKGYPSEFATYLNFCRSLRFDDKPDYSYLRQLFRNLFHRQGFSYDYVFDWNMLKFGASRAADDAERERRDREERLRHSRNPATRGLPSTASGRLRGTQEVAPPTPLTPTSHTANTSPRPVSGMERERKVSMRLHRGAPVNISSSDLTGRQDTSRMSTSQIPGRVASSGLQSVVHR
Active and inactive are the calls of the source. The rule behind the calls is not given here.
Measured property: EC

// worked examples, EC included
CC(C)n1cnc2c(NCc3cccc(C(F)(F)F)c3)nc(NC3CC3)nc21 :: 1.62 µM
CC(C)Oc1nc(NCc2cccc(C(F)(F)F)c2)c2ncn(C(C)C)c2n1 :: 0.39 µM
CC(C1CC1)n1cnc2c(NCc3cccc(C(F)(F)F)c3)nc(NCCN(C)C)nc21 (stereo not given) :: 0.022 µM
COc1nc(NCc2cccc(C(F)(F)F)c2)c2ncn(C(C)C)c2n1 :: 0.32 µM
CC(C)n1cnc2c(NCc3cccc(C(F)(F)F)c3)nc(N3CCN(C)CC3)nc21 :: 0.9 µM
CC[C@H](CO)Nc1nc(NCc2cccc(C(F)(F)F)c2)c2ncn(C(C)C)c2n1 :: 0.38 µM

Query: Given the entry CC(C)n1cnc2c(NCc3cccc(C(F)(F)F)c3)ncnc21 , report its measured EC.
Reply: 0.39 µM

Query: Given the entry CC(C1CC1)n1cnc2c(OCc3cccc(C(F)(F)F)c3)nc(NCCN(C)C)nc21 (stereo not given) , report its measured EC.
Reply: inactive

Query: Given the entry COCC1CCCN1c1nc(NCc2cccc(C(F)(F)F)c2)c2ncn(C(C)C)c2n1 (stereo not given) , report its measured EC.
Reply: inactive

Query: Given the entry CC(C)n1cnc2c(NCc3cccc(C(F)(F)F)c3)nc(NCc3ccccc3)nc21 , report its measured EC.
Reply: inactive
